# study.system: p38b MAPK (Homo sapiens)
# Sequence (Q15759 whole entry): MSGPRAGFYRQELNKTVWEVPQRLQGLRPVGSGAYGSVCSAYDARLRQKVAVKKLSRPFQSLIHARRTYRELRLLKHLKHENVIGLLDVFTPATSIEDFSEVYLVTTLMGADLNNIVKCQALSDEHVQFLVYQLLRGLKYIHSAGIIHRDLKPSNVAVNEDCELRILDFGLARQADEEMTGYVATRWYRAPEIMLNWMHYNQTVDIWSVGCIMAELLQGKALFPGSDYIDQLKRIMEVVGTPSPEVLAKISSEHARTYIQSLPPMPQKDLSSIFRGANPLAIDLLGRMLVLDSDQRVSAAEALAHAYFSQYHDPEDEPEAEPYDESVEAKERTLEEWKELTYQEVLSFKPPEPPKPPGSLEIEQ
# experimental.details: Kinase profiling p38b MAPK
# Type: biochemical
# conditions.used: 100 micromolar inhibitor concentration; 100 is no change; read-out: residual kinase activity, p38b MAPK
# Excerpt: Any value less that 25 is considered to be highly significant inhibition.
# remaining activity at 100 µM listing for each entry below
Output spec: scalar in %, unitless text.

CC(=O)Nc1nc2ccc(C(F)(F)F)cc2s1 : 82
CC(=O)Nc1nc2ccc(O)cc2s1 : 106
CC(=O)Nc1nc2ccc(C#N)cc2s1 : 100
CC(=O)Nc1nc2cc(C(F)(F)F)ccc2s1 : 97
COc1ccc2sc(NC(C)=O)nc2c1 : 101

Now look at this one.
Data point: "CC(=O)Nc1nc2cc(F)ccc2s1" ; remaining activity at 100 µM = 79
